Data provenance is PubChem BioAssay (NCI).

Test system: NCI/ADR-RES ovarian
Test: NCI tumour cell line growth inhibition, 48 h
endpoint-label: GI50

1) Nc1nc2c(c3ncccc13)C(c1ccc(Cl)c(Cl)c1)Cc1ncccc1-2 (stereo unspecified); 3.31 µM
2) Nc1ccc(-c2nc3ccccc3[nH]2)c(O)c1; 27.8 µM
3) CSc1ccc(-c2cc(-c3ccc(NC(=O)CCCN4CCCC4)cc3)nc(-c3ccc(NC(=O)CCCN4CCCC4)cc3)c2)cc1; 12.4 µM
4) CC(=N\O)/C(C)=N/O.CC(=N\O)/C(C)=N/O.CC(=N\O)/C(C)=N/O.CC(=N\O)/C(C)=N/O.[Cu].[Cu]; 23.9 µM
5) Cc1ccc2c[c]1[Hg][CH2]COS2(=O)=O; 25 µM
6) COc1ccc(C2=CC(c3cc(OC)c(OC)c(OC)c3)NC(=O)N2)cc1OC (stereo unspecified); 3.02 µM
7) CN(C)/C=C/c1nnnn1-c1ccc(Cl)cc1; 10.2 µM
8) Cc1cccc2nc3cccc(C(=O)NCCC[N+](C)(CCCNC(=O)c4cccc5nc6cccc(C)c6nc45)Cc4c([N+](=O)[O-])ncn4C)c3nc12; 131 µM
9) O=CN1N=C(c2ccc(Nc3ccnc4cc(Cl)ccc34)cc2)CC1c1ccccc1 (stereo unspecified); 2.69 µM
10) O=C(Nc1ccc(Cl)cc1)c1cc2c(cc1O)[nH]c1ccccc12; 2.87 µM
11) COc1ccc(-c2nsc3c2NC(=O)CC3c2ccc3c(c2)OCO3)cc1 (stereo unspecified); 0.524 µM

###

Tested on: OVCAR-3 ovarian
Assay: NCI tumour cell line growth inhibition, 48 h
endpoint-label: GI50

1) O=[N+]([O-])c1cc(O)c(O)cc1-c1cn2ccsc2n1; 23.6 µM
2) O=C(Nc1ccc(Cl)cc1)c1cc2c(cc1O)[nH]c1ccccc12; 3.72 µM
3) Cc1nc2cncc(C#Cc3cncc(C(=O)Nc4ccc(CN5CCN(C)CC5)c(C(F)(F)F)c4)c3)c2nc1C; 0.899 µM
4) O=S1(=O)N(Cc2ccccc2)[C@@H](Cc2ccccc2)C2O[C@H]2[C@H](Cc2ccccc2)N1Cc1ccccc1 (stereo partly drawn); 4.03 µM
5) CC(=N\O)/C(C)=N/O.CC(=N\O)/C(C)=N/O.CC(=N\O)/C(C)=N/O.CC(=N\O)/C(C)=N/O.[Cu].[Cu]; 22.6 µM
6) COc1ccc(C2=CC(c3cc(OC)c(OC)c(OC)c3)NC(=O)N2)cc1OC (stereo not drawn); 2.13 µM
7) Fc1ccc(C2CC(c3cccc(Nc4ccncc4)c3)=NN2c2cc(Cl)cc(Cl)c2)cc1 (stereo not drawn); 1.8 µM
8) Nc1ccccc1NC(=O)CCCCCCC(=O)Nc1ccc2c(c1)/C(=C/c1ccc[nH]1)C(=O)N2; 5.42 µM
9) O=S(=O)([O-])[O-].[Cl-].[NH2-].[NH2-].[NH2-].[NH2-].[Ru+3].c1ccc(-c2cccnc2)cc1; > 100 µM
10) c1cc(C2CCCCC2)ccc1OCCCCCCN1CCNCC1; 1.82 µM
11) O=CN1N=C(c2ccc(Nc3ccnc4cc(Cl)ccc34)cc2)CC1c1ccccc1 (stereo not drawn); 2.78 µM
12) Cn1c(=O)c(Oc2cccc(F)c2)cc2cnc(NC3CCOCC3)nc21; > 25 µM
13) Cc1[nH]c(C(=O)Nc2ccc(C(=O)N3CCNCC3)cc2OC(C)C)c(Cl)c1Cl; 2.19 µM
14) CSc1ccc(-c2cc(-c3ccc(NC(=O)CCCN4CCCC4)cc3)nc(-c3ccc(NC(=O)CCCN4CCCC4)cc3)c2)cc1; 3.97 µM
15) COc1cc2c(c(OC)c1OC)-c1ccc(NNC(=S)N(Cc3cccc(C[N+](Cc4cccc(CNC56CC7CC(CC(C7)C5)C6)c4)(Cc4cccc(CNC56CC7CC(CC(C7)C5)C6)c4)Cc4cccc(CN(C(=S)NNc5ccc6c(cc5=O)[C@@H](NC(C)=O)CCc5cc(OC)c(OC)c(OC)c5-6)C56CC7CC(CC(C7)C5)C6)c4)c3)C34CC5CC(CC(C5)C3)C4)c(=O)cc1[C@@H](NC(C)=O)CC2 (stereo partly drawn); 1.66 µM
16) C[C@]12CC/C(=N\N)C[C@@H]1CC[C@@H]1[C@@H]2CC[C@]2(C)/C(=N/N)CC[C@@H]12; > 100 µM
17) Nc1ccc(N=Nc2ccccc2)c(N)n1; 20.2 µM
18) O=C(Nc1ncc(Cc2ccccc2)s1)c1ccc2c(c1)OCCCO2; 0.614 µM

###

Test system: ACHN renal
Assay: NCI tumour cell line growth inhibition, 48 h; in the data active = GI50 below about 0.43 µM; inactive = the rest
Classes used: active, inactive

1. COc1cc2c(cc1OCCCOC1=C=C=C(c3ccc4c(c3)c3cc(-c5ccc(OCCCOc6cc7c(cc6OC)C(=O)N6CCC[C@H]6C=N7)cc5)ccc3n4S(=O)(=O)c3ccc(C)cc3)C=C1)N=C[C@@H]1CCCN1C2=O; inactive
2. CCN(CC)c1ccc(N=C2C=C(C(=O)Nc3ccc(S(C)(=O)=O)cc3)C(=O)c3ccccc32)c(C)c1; inactive
3. CCOC(=O)c1cc2c(n1Cc1cc(OC)cc(OC)c1)-c1oncc1CCC2; active
4. Cc1nc2cncc(C#Cc3cncc(C(=O)Nc4ccc(CN5CCN(C)CC5)c(C(F)(F)F)c4)c3)c2nc1C; active
5. C[C@]12CC/C(=N\N)C[C@@H]1CC[C@@H]1[C@@H]2CC[C@]2(C)/C(=N/N)CC[C@@H]12; inactive
6. COc1cc(C(=O)/C=C/c2c(-c3ccc(F)cc3)nc3sc(C)cn23)cc(OC)c1OC; inactive
7. c1cc(C2CCCCC2)ccc1OCCCCCCN1CCNCC1; inactive
8. N#Cc1cccc(C(=O)c2cnn(-c3ccc(F)cc3)c2N)c1; inactive
9. O=C1c2ccccc2-c2c1c1ccc([N+](=O)[O-])cc1c(=O)n2CCNCCCNCCn1c2c(c3ccc([N+](=O)[O-])cc3c1=O)C(=O)c1ccccc1-2; active
10. CC1=C(C(=O)Nc2ccc3[nH]ncc3c2)C(c2ccc(F)cc2)NC(=O)N1 (stereo not drawn); inactive
11. CCN(CC)CCOc1ccc(Nc2ncc3cc(-c4c(Cl)cccc4Cl)c(=O)n(CCOC)c3n2)cc1; active
12. CCCCCCCCCCCCCCCC(=O)OCC1OC(n2cnc3c(=S)nc(N)[nH]c32)C(OC(=O)CCCCCCCCCCCCCCC)C1OC(=O)CCCCCCCCCCCCCCC (stereo not drawn); inactive
13. CC/C=C\C/C=C\C[C@H](O)C/C=C1/C(=O)C=C[C@H]1C/C=C\CCC(=O)OC; inactive

###

System: SF-295 CNS
Assay: NCI tumour cell line growth inhibition, 48 h; in the data active = GI50 below about 0.43 µM; inactive = the rest
Classes used: YES (active), NO (inactive)

1) CCCCCCCCCCCCCCCC(=O)OCC1OC(n2cnc3c(=S)nc(N)[nH]c32)C(OC(=O)CCCCCCCCCCCCCCC)C1OC(=O)CCCCCCCCCCCCCCC (stereo unspecified); NO
2) OCc1cccc(-c2ccc3ncc(-c4nc(NC5CC5)ncc4F)n3c2)c1; YES
3) COc1ccc(-c2nsc3c2NC(=O)CC3c2ccc3c(c2)OCO3)cc1 (stereo unspecified); NO
4) Nc1ccccc1NC(=O)CCCCCCC(=O)Nc1ccc2c(c1)/C(=C/c1ccc[nH]1)C(=O)N2; NO
5) Cc1cccc2nc3cccc(C(=O)NCCC[N+](C)(CCCNC(=O)c4cccc5nc6cccc(C)c6nc45)Cc4c([N+](=O)[O-])ncn4C)c3nc12; NO
6) COc1cc([C@@H]2c3cc4c(cc3C(Br)[C@H]3COC(=O)[C@H]23)OCO4)cc(OC)c1OC (stereo partly specified); YES

###

Catalogue of compounds with associated TGI
Tested on: NCI/ADR-RES ovarian
Test: NCI tumour cell line growth inhibition, 48 h
endpoint-label: TGI

1. C[N+](C)([O-])CCCNc1c2ccccc2nc2cccc([N+](=O)[O-])c12; 75.6 µM
2. O=C(NNc1cn[nH]c(=O)c1Cl)/C(=C/c1ccc2c(c1)OCO2)NC(=O)c1ccccc1; > 100 µM
3. CN(C)c1ccc(C(=O)c2ccc(N(C)C)c(N)c2)cc1N; 12.3 µM
4. Nc1c(C(=O)c2cccc(-c3ccc[n+]([O-])c3)c2)cnn1-c1ccc(F)cc1F; > 25 µM
5. Cc1cc(N=Cc2c(CO)cnc(C)c2O)c(N=Cc2c(CO)cnc(C)c2O)cc1C.[Zn]; > 100 µM
6. CC1CC[C@@]2(OC1)O[C@H]1C[C@H]3[C@@H]4CC[C@H]5C[C@@H](OC6OC(CO)C(OC7OC(CO)C(OC8OC(CO)C(O)C(OC9OC(C)C(OC%10OC(C)C(O)C(O)C%10O)C(O)C9O)C8OC8OCC(O)C(O)C8O)C(O)C7O)C(O)C6O)CC[C@]5(C)[C@H]4CC(=O)[C@]3(C)[C@H]1[C@@H]2C (some centres not stated); 43.2 µM
7. CC(=O)OCc1cc(=O)n(C)c2c3c4c(cc12)c(C)cc(=O)n4CO3; 10.9 µM
8. O=C(Nc1ccc(Cl)cc1)c1cc2c(cc1O)[nH]c1ccccc12; 8.93 µM
9. Cn1c(=O)c(Oc2cccc(F)c2)cc2cnc(NC3CCOCC3)nc21; > 25 µM
10. COc1cc2c(cc1OCCCOC1=C=C=C(c3ccc4c(c3)c3cc(-c5ccc(OCCCOc6cc7c(cc6OC)C(=O)N6CCC[C@H]6C=N7)cc5)ccc3n4S(=O)(=O)c3ccc(C)cc3)C=C1)N=C[C@@H]1CCCN1C2=O; > 50 µM
11. O=S1(=O)N(Cc2ccccc2)[C@@H](Cc2ccccc2)C2O[C@H]2[C@H](Cc2ccccc2)N1Cc1ccccc1 (some centres not stated); > 7.5 µM
12. OCc1cccc(-c2ccc3ncc(-c4nc(NC5CC5)ncc4F)n3c2)c1; 1.68 µM
13. CN(C)CCOC(=O)c1ccc(N)cc1; > 100 µM
14. Cc1ccc(-n2c(O)c3c(N)n[nH]c3c(C#N)c2=O)cc1; > 100 µM
15. COc1c(OC)c(O)c2c(=O)c(OC)c(-c3ccc4c(c3)OCO4)oc2c1O; > 100 µM
16. CC(C)(C)n1c(=O)n(C(=O)C(Cl)(Cl)Cl)n(C(=O)C(Cl)(Cl)Cl)c1=O; > 100 µM
17. N#Cc1c(N2CCCC2)ncn(Cc2ccccc2)c1=S; > 100 µM
